- Assay Target: HDAC6 (Homo sapiens, UniProt Q9UBN7)
- Construct: purchased Reaction Biology Corporation (assay run by the CRO)
- Sequence (Q9UBN7 whole entry): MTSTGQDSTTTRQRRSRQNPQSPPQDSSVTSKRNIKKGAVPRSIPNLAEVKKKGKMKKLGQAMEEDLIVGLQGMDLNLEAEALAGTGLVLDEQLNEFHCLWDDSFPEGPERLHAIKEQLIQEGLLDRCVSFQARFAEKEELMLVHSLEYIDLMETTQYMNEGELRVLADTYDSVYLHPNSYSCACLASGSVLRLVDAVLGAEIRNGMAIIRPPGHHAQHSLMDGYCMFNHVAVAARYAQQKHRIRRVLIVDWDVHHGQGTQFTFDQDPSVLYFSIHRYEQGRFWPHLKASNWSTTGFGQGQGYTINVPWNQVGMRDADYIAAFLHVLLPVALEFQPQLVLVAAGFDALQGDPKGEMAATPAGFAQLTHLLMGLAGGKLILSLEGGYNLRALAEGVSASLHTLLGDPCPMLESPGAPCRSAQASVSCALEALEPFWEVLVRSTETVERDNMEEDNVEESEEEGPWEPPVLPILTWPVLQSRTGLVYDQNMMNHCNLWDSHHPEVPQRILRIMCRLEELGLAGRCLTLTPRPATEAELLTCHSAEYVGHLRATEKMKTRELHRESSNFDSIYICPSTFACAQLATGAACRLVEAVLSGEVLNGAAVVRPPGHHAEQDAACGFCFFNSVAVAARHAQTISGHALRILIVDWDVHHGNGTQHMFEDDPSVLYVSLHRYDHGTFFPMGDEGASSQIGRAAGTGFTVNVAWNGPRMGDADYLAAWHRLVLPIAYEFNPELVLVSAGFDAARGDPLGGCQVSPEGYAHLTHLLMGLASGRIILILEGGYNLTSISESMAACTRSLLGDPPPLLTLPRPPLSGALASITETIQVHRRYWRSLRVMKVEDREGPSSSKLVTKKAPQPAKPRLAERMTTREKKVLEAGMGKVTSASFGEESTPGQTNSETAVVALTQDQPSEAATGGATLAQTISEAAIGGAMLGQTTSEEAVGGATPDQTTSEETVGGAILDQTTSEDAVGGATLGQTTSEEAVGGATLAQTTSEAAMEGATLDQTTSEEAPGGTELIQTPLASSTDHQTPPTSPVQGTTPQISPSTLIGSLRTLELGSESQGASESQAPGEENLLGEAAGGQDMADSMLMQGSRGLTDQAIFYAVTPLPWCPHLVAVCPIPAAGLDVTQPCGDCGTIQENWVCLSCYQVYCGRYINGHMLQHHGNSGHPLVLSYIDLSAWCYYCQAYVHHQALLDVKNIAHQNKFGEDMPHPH
- Experiment Summary: HDAC6 inhibition, full IC50 measurement (Reaction Biology; fluorogenic p53 peptide RHKK(Ac)AMC)
- Format: biochemical
- Condition Context: Conc. 3.33E-06 M, t1
Peptide text beside a SMILES is read from it.
Assay Readout: HDAC6 activity raw data (signal)
Answer with a bare number; do not write a unit.

Exercise: Endpoint output: HDAC6 activity raw data (signal) of CCCC[C@H]1NC(=O)[C@H](CC(=O)O)NC(=O)[C@@H](CO)NC(=O)[C@@H](C)NC(=O)[C@H](CCCCN)NC(=O)[C@@H](CCCCN)NC(=O)[C@H](Cc2ccccc2)NC(=O)[C@H](CCCCCS)NC1=O [des4.3.1.2, SHA-Phe-dLys-Lys-dAla-dSer-Asp-dNle] (HELM PEPTIDE1{D.[CCCC[C@@H](N[*:1])C(=O)[*:2]].[O=C([C@H](CCCCCS)N[*:1])[*:2]].F.[dK].K.[dA].[dS]}$PEPTIDE1,PEPTIDE1,1:R1-8:R2$$$V2.0) . Value?
Solution: 689811

Exercise: Follow-up entry: CCCC[C@H]1NC(=O)[C@H](Cc2ccccc2)NC(=O)[C@H](CCCCCS)NC(=O)[C@@H](CCCNC(=N)N)NC(=O)[C@H](C)NC(=O)[C@@H](CO)NC(=O)[C@@H](C)NC(=O)[C@H](CCCCN)NC1=O [des4.3.1.3, SHA-Phe-dNle-Lys-dAla-dSer-Ala-dArg] (HELM PEPTIDE1{A.[dR].[O=C([C@H](CCCCCS)N[*:1])[*:2]].F.[CCCC[C@@H](N[*:1])C(=O)[*:2]].K.[dA].[dS]}$PEPTIDE1,PEPTIDE1,1:R1-8:R2$$$V2.0)
Solution: -1405

Exercise: Thanks! And NCCCC[C@@H]1NC(=O)[C@@H]2C[C@@H](O)CN2C(=O)[C@H](CC(N)=O)NC(=O)[C@H](CCCCCS)NC(=O)CNC(=O)[C@H](Cc2c[nH]c3ccccc23)NC(=O)[C@@H](CCCCN)NC(=O)[C@H](CCC(N)=O)NC1=O [des1.1.2, SHA-Asn-Hpr-Lys-Gln-dLys-Trp-Gly] (HELM PEPTIDE1{G.[O=C([C@H](CCCCCS)N[*:1])[*:2]].N.[Hyp].K.Q.[dK].W}$PEPTIDE1,PEPTIDE1,1:R1-8:R2$$$V2.0) ?
Solution: 16992

Exercise: Also need NCCCC[C@@H]1NC(=O)[C@@H]2CCCN2C(=O)[C@H](CC(N)=O)NC(=O)[C@H](CCCCCS)NC(=O)CNC(=O)[C@H](Cc2c[nH]c3ccccc23)NC(=O)[C@@H](CCCCN)NC(=O)[C@H](CCC(N)=O)NC1=O [des1.1.0, SHA-Asn-Pro-Lys-Gln-dLys-Trp-Gly] (HELM PEPTIDE1{G.[O=C([C@H](CCCCCS)N[*:1])[*:2]].N.P.K.Q.[dK].W}$PEPTIDE1,PEPTIDE1,1:R1-8:R2$$$V2.0) , thanks.
Solution: 12160

Exercise: Same lookup for CC(C)C[C@H]1NC(=O)[C@H](Cc2c[nH]c3ccccc23)NC(=O)[C@H](CCCCCS)NC(=O)[C@@H](Cc2ccc(O)cc2)NC(=O)[C@@H](C(C)C)NC(=O)[C@H](Cc2c[nH]cn2)NC(=O)CNC(=O)CNC(=O)[C@@H](CO)NC1=O [des2.2.0, SHA-Trp-dLeu-dSer-Gly-Gly-His-dVal-dTyr] (HELM PEPTIDE1{G.G.H.[dV].[dY].[O=C([C@H](CCCCCS)N[*:1])[*:2]].W.[dL].[dS]}$PEPTIDE1,PEPTIDE1,1:R1-9:R2$$$V2.0) , please.
Solution: 43855
